# target: T1, RADIL, Q96JH8
# T1 sequence (Q96JH8 971-1071, limits assumed, looked up): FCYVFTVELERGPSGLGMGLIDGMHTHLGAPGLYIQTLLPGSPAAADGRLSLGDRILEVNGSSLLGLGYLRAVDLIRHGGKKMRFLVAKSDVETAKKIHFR
# protocol details: holdup assay
# Set-up: key: below the threshold = too weak to quantify, mostly under pKd 3.1 to 4
# measurement setup: plain residues with an end cap or a label only (N-terminal biotin on a linker: ttds)
metric: pKd
Just the number, please, no unit after it.

> print(dat)
                         binder  metric  number
1  SSIDLWETAL [SLC15A5, A6NIM6]     pKd    3.78
2     SGGKRKETLV [NET1, Q7Z628]     pKd    3.82
3     FVETQHQTQV [FAT3, Q8TDW7]     pKd    4.27

Continue with the binder presented below.
May I ask what pKd has been recorded for KQVVPFSSSV [GDA, Q9Y2T3] ?
3.76
